# System: OV90
# measurement.description: Primary qHTS to identify gynecologic anti-cancer compounds using libraries of approved drugs and bioactive compounds (AID 1345084); further: nearly all actives have a fitted effect of over 55% in size
# setup.conditions: Gynecologic cancer cell panel viability, ATPlite luminescence, 48 h; series mostly up to 57.5 µM
Records with an inconclusive call do not appear. Activity calls are given as the source filed them. The call rests on the fitted dose curve; in most records, active means well fitted cell-killing curve with a large enough effect; inconclusive means small, poorly fitted or top-dose-only effect, or effect the other way; inactive means flat fitted curve, though single readings scatter.
Your answer must be one of the following: YES (active), NO (inactive)

-- ask Hi, do you know how COc1cc(/C=C2\CCCN([C@@H](C)c3ccc(F)cc3)C2=O)ccc1-n1cnc(C)c1 came out in this test?
-- reply NO

-- ask State the result this test recorded for c1cc(NCCc2c[nH]c3ccccc23)cc(Nc2ccncc2)c1 .
-- reply NO

-- ask I'd appreciate the recorded outcome for COc1cc([C@H]2O[C@H](c3cc(OC)c4c(c3)OCO4)[C@H](C)[C@H]2C)cc(OC)c1OC from this test.
-- reply YES

-- ask What outcome does the record of this test show for Cc1ccc(C2(C(=O)N3CCC(n4nc(-c5ccccc5)oc4=O)CC3)CC2)cc1 ?
-- reply NO

###

Assignment: determine reported max response for the given molecules.
# Test system: NIH3T3
# measurement.description: Cytotoxic Profiling of Annotated Libraries Using Quantitative High-Throughput Screening (AID 1296008); further: nearly all actives have a fitted effect of over 60% in size; on max response: on the % scale 0 is the no-effect control and ±100 the full control effect
# setup.conditions: Five cell lines viability, CellTiter-Glo ATP luminescence, 48-72 h; active compounds read low
Results filed as inconclusive are left out. Calls of active or inactive are those of the source. Calls follow the shape of the dose curve; as a rule, active = well fitted inhibition curve with a large enough effect; inconclusive = small, poorly fitted or top-dose-only effect; inactive = flat fitted curve, though single readings scatter.

-- ask Endpoint output: max response of COc1cc(Br)c(S(=O)(=O)Nc2ccc(Cl)c(O[C@@H]3CCN(C)C3)c2)cc1OC . Value?
-- reply -15.8% (inactive)

-- ask Dear colleague, I am looking for the recorded max response of the following molecule: COc1ccc(C[C@H]2COC(=O)[C@@H]2Cc2ccc(O[C@@H]3O[C@H](CO)[C@@H](O)[C@H](O)[C@H]3O)c(OC)c2)cc1OC
-- reply -30.4% (inactive)

-- ask If you can, please state the reported max response value of C=C1CCC2[C@](C)(CCC[C@@]2(C)C=O)[C@H]1CC/C(C)=C/CO (stereo partly drawn) .
-- reply 1.76% (inactive)

-- ask // returns reported max response for input Cc1cccc(N2CCN(C(=O)c3cc(S(=O)(=O)N(C)C)ccc3N3CCCC3)CC2)c1C
-- reply -5.43% (inactive)

-- ask I would be grateful if you could share the reported max response for O=C(O)CCc1nccc2c1[nH]c1ccccc12 .
-- reply -2.87% (inactive)

-- ask Look at this molecule and give its reported max response. CC(C)(C)NC(=O)[C@H]1CC[C@H]2[C@@H]3CC[C@H]4NC(=O)CC[C@]4(C)[C@H]3CC[C@]12C
-- reply -8.88% (inactive)

-- ask # input molecule: Cc1ccc(C)c(NS(=O)(=O)c2cc(C(=O)Nc3ccccc3-c3ccccc3)ccc2C)c1 ; wanted: its max response
-- reply -13.7% (inactive)

-- ask Reported max response, molecule Cc1cnc(-c2ccccc2C(C)C)nc1NCc1ccc(-n2ccnn2)cc1 : ____
-- reply -17% (inactive)

-- ask Param item = C[C@@H]1C[C@H]2O[C@@]3(O[C@@H]2C(C)(C)O)C(O)[C@@]2(C)C4CCC5C(C)(C)[C@@H](O[C@H]6OC[C@H](O)[C@@H](O)[C@@H]6O)CC[C@@]56C[C@@]46CC[C@]2(C)C13 (stereo partly drawn) ; retrieve measured max response.
-- reply -0.0399% (inactive)

-- ask May I ask what max response has been recorded for O=C(Nc1ccc(N(Cc2ccsc2)C(=O)Cn2nnc3ccccc32)cc1)C1CC1 ?
-- reply 4.89% (inactive)

-- ask Name the recorded max response for O=C1c2ccc(Nc3ccc(F)cc3F)cc2CCc2ccc(OCC(O)CO)cc21 (stereo not drawn) .
-- reply -2.95% (inactive)

-- ask Fill in the blank: the reported max response of Cc1c(OCc2cccc(-c3ccc(C(=O)O)cc3)c2)cc2c(c1C)C(=O)C(C1CCCC1)C2 (stereo not drawn) is ____.
-- reply -4.46% (inactive)

-- ask Tell me the measured max response of C[C@@H](NC(=O)C(=O)c1c[nH]c2ccc([N+](=O)[O-])cc12)c1ccccc1 , please.
-- reply 3.7% (inactive)

###

# target.desc: Cytochrome P450 2D6 (Homo sapiens)
# measurement.description: Cytochrome P450 family 2 subfamily D member 6 (CYP2D6) small molecule antagonists: luciferase biochemical (cell-free) qHTS assay (AID 1645840); further: nearly all actives have a fitted effect of over 55% in size
# setup.conditions: P450-Glo CYP2D6 enzyme, luciferin luminescence, 1 h; series mostly up to 57.4 µM
# Excerpt: National Center for Advancing Translational Sciences [NCATS] Assay Overview: Cytochrome P450 (CYP) enzymes are membrane-bound hemeproteins that play a key role in metabolism of drugs and xenobiotics. Assaying the effect of chemicals on CYP isozymes is useful to minimize the adverse drug reactions and toxicities in drug development process. […] The luciferin products formed are detected with a luciferin detection reagent, and the amount of light produced is proportional to CYP activity. […]
Records with an inconclusive call do not appear. The source made the active and inactive calls. Calls come from the whole dose curve; as a rule, active = well fitted inhibition curve with a large enough effect in the repeat runs; inconclusive = weak or mixed curves; inactive = flat fitted curve, though single readings scatter.
Permitted responses: 1.0 = active, 0.0 = inactive

-- ask So what was the verdict on Cc1cc(C)c(-n2cc(C)c3c(Cl)nc(C)nc32)c(C)c1 in this test?
-- reply 0.0

-- ask What was the test verdict on COCc1c(Cl)ccc2c1CC[C@H]2c1ncc[nH]1 ?
-- reply 1.0

-- ask Which outcome did this test record for the compound CCC(C)c1ccc(NC(=O)Cn2cnc3c2c(=O)n(C)c(=O)n3C)cc1 (centres undefined) ?
-- reply 0.0

-- ask Which outcome did this test record for the compound CC(C)S(=O)(=O)Nc1ccc(F)c(C(=O)c2c[nH]c3ncc(-c4cccnc4)cc23)c1F ?
-- reply 1.0

###

# Tested on: HeLa
# measurement.description: Primary qHTS to identify gynecologic anti-cancer compounds using libraries of approved drugs and bioactive compounds (AID 1345084); further: nearly all actives have a fitted effect of over 55% in size
# setup.conditions: Gynecologic cancer cell panel viability, ATPlite luminescence, 48 h; series mostly up to 57.5 µM
Results filed as inconclusive are left out. Calls of active or inactive are those of the source. The call rests on the fitted dose curve; in most records, active means well fitted cell-killing curve with a large enough effect; inconclusive means small, poorly fitted or top-dose-only effect, or effect the other way; inactive means flat fitted curve, though single readings scatter.
Classes to choose from: label 1 for active, label 0 for inactive

-- ask In this assay, the call recorded for Cn1ccc(NC(=O)c2cc(Oc3ccc(C(=O)N4CCC4)c(F)c3)c3c(c2)OC(C)(C)C3)n1 was what?
-- reply label 0

-- ask Hi team, can someone confirm the assay call for C=C1C(=O)OC2/C=C(\C)CC/C=C(\C=O)C(OC)C(OC(=O)C(C)CC)C12 (centres undefined) ?
-- reply label 0

-- ask // return assay outcome for Cc1nc(NC(=O)N2CCC[C@H]2C(N)=O)sc1-c1ccnc(C(C)(C)C(F)(F)F)c1
-- reply label 0

-- ask How did this test come out for O=c1cc(OCc2ccc(F)cc2)ccn1-c1ccc(OCCN2CCCC2)cc1 ?
-- reply label 0

-- ask Please let me know the test result on file for CN(C)CC#CCCC(=O)C(O)(c1ccccc1)C1CCC1 (centres undefined) .
-- reply label 0

-- ask What did this assay record as the result for CN(CC1COCCO1)S(=O)(=O)Nc1ccc2ccc3ncc(-c4cnn(C)c4)cc3c(=O)c2c1 (centres undefined) ?
-- reply label 1

-- ask What call does the record list for C=CC(=O)N1CC(N2CCN(C(=O)CNc3cc(C4CC4)c(Cl)cc3O)CC2)C1 ?
-- reply label 0

-- ask Which outcome did this test record for the compound CC(=O)OC1C(OC(=O)c2ccccc2)C2C(C)(C)CCC(OC(C)=O)C2(C)C23CCC(C)(C2)C(=O)CC13 (centres undefined) ?
-- reply label 0

-- ask GET /call?item= COc1ccc(N(C(=O)Nc2c(C)cccc2C)c2cc(Nc3ccc(N4CCN(C)CC4)cc3)ncn2)c(OC)c1 returns the recorded outcome of this test.
-- reply label 0

###

# Tested on: NIH3T3
# measurement.description: Cytotoxic Profiling of Annotated Libraries Using Quantitative High-Throughput Screening (AID 1296008); further: nearly all actives have a fitted effect of over 60% in size; further: potency means the concentration at half of the fitted maximal effect
# setup.conditions: Five cell lines viability, CellTiter-Glo ATP luminescence, 48-72 h
# Protocol: Cell-based phenotypic screening is a commonly used approach to discover biological pathways, novel drug targets, chemical probes and high-quality hit-to-lead molecules. […] A pintool (Kalypsys) was used to transfer 23 nL of compound solution to the 1536-well assay plates. […] Plates were left at room temperature for 10 min before imaging the ATP-coupled luminescence using a ViewLux microplate imager (PerkinElmer, Waltham, MA).
Inconclusive results are not listed. The source made the active and inactive calls. The call rests on the fitted dose curve; in most records, active means well fitted inhibition curve with a large enough effect; inconclusive means small, poorly fitted or top-dose-only effect; inactive means flat fitted curve, though single readings scatter.
assay.endpoint: Potency

Worked examples follow.
- compound: "O=C(Cc1cccc(OC(F)(F)F)c1)Nc1ccc(CCCCc2nnc(NC(=O)Cc3ccccn3)s2)nn1"
  assay.endpoint: "Potency"
  meas.value: "26.3 µM (active)"
- compound: "COC(=O)Nc1cc(Nc2cc(NC3CC3)c3ncc(C#N)n3n2)c(Cl)c(N2CCN(C)CC2)c1"
  assay.endpoint: "Potency"
  meas.value: "14.8 µM (active)"
- compound: "O=C(Nc1ccccc1Cl)c1cnc2ccc(C3CCNCC3)cn12"
  assay.endpoint: "Potency"
  meas.value: "1.46 µM (active)"
- compound: "CCOc1ccc(Cc2nc(-c3c(C)nc4ccccn34)cs2)cc1"
  assay.endpoint: "Potency"
  meas.value: "0.0461 µM (active)"
- compound: "CN1CCN(C2=Nc3ccccc3Nc3ccc(OS(=O)(=O)C(F)(F)F)cc32)CC1"
  assay.endpoint: "Potency"
  meas.value: "inactive"
- compound: "CCNC(=O)Nc1ccc(-c2nc3c(c(N4CCOCC4C)n2)CCN(C2COC2)C3)cc1 (configuration not stated)"
  assay.endpoint: "Potency"
  meas.value: "2.31 µM (active)"
- compound: "Cc1cc(-c2cnc(N)c3c(-c4ccc5scnc5c4)csc23)n(C)n1"
  assay.endpoint: "Potency"
  meas.value: "11.6 µM (active)"
- compound: "CCCCCCCOc1cc2c(cc1/C(C)=C/c1ccc(C(=O)O)cc1)C(C)(C)CCS2(=O)=O"
  assay.endpoint: "Potency"
  meas.value: "inactive"
- compound: "CCCc1cc(C)n(C)c(=O)c1CN(C)C(=O)c1cc(-c2ccc(N3CCN(C(C)C)CC3)nc2)cc2c1cnn2C(C)C"
  assay.endpoint: "Potency"
  meas.value: "inactive"
- compound: "C=CC(=O)Nc1cccc(Nc2nc(Nc3ccc(OCCOC)cc3)ncc2F)c1"
  assay.endpoint: "Potency"
  meas.value: "5.8 µM (active)"

-- ask Request - read-out Potency | tested on NIH3T3 | compound Cn1nc(C(C)(C)C)cc1C(=O)N[C@@H](Cc1cccc(Cl)c1)C(=O)NCC#N
-- reply inactive

-- ask Record lookup: for NIH3T3, what Potency belongs to C[C@H]1CC[C@@]2(OC1)O[C@H]1CC3C4CC[C@H]5C[C@@H](O)CC[C@]5(C)C4=CC(=O)[C@]3(C)[C@H]1[C@@H]2C (some centres not stated) ?
-- reply inactive

-- ask Field: Potency (NIH3T3). Entry: C=CC(C)(C)c1[nH]c2ccccc2c1C[C@@H]1NC(=O)[C@H](C)NC1=O
-- reply inactive

-- ask # get_value(readout= Potency, system= NIH3T3) for CC1OC(=O)C[C@@H]2C(C(=O)O)=CO[C@@H](O[C@H]3O[C@H](CO)[C@@H](O)[C@H](O)[C@H]3O)[C@H]12 (some centres not stated)
-- reply inactive

-- ask Find Potency (NIH3T3) for the entry CN[C@H]1CC[C@@H](c2ccc(Cl)c(Cl)c2)c2ccccc21
-- reply 11.9 µM (active)

-- ask Query for NIH3T3: what Potency does the record show for C=C1[C@H]2CC[C@H](C(=O)O)[C@@]23CC[C@H](C3)C1(C)C ?
-- reply inactive

-- ask Form entry - test system: NIH3T3; read-out: Potency; compound: CO[C@H]1O[C@@H]2O[C@@]3(C)CCC4[C@H](C)CCC([C@H]1C)[C@]42OO3 (some centres not stated)
-- reply inactive
